Property: EC50; scope: individual binders
- Measurement Target: T1, human TF-His (human, UniProt P13726 33-251)
- T1 construct: range 33-251; Recombinant extracellular segment expressed in HEK293-EBNA cells and purified on a nickel column; also called h.TF-His; h; TF-his; not shown: His tag from vector pTT5-His
- Assay Notes: ELISA, plate coated with h.TF-His

Binder	EC50 (ng/mL)
30G11B7-hz1 (antibody, human IgG1, kappa, V domains shown, Humanized IgG1 kappa) VH: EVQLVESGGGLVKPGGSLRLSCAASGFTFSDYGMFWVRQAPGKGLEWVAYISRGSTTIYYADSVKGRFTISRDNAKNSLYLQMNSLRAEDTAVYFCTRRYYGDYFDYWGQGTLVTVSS VL: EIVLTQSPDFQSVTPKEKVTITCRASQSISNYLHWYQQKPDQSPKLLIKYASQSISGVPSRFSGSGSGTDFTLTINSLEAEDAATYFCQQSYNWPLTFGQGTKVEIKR	7.91
2B12B10-hz1 (antibody, human IgG1, kappa, V domains shown, Humanized IgG1 kappa) VH: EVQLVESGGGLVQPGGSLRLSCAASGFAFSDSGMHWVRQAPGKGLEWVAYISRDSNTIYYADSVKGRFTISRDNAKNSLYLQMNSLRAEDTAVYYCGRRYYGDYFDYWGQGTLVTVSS VL: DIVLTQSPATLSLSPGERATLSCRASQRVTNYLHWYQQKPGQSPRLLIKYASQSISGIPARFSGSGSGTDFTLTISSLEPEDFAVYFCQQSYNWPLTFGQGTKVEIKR	6.72
27H8H3-hz1 (antibody, human IgG1, kappa, V domains shown, Humanized IgG1 kappa) VH: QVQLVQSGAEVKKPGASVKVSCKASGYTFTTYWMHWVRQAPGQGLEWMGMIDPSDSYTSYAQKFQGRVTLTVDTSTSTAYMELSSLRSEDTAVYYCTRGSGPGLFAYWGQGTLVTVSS VL: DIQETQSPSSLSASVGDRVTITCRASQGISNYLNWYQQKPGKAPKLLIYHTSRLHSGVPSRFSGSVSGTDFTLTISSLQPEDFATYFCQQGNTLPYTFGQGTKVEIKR	8.15

Source of measurements: patent US20250333541A1
